For each of the binders below, state its 100 nM FACS (MFI Ratio).
measurement_target: T1, neuropilin-1 (NRP1) on HEK293 cells overexpressing NRP1 (UniProt O14786 22-923, limits assumed)
T1 construct: whole, on cells
experiment: flow cytometry, HEK293-NRP1 vs HEK293
Enter a number only.

// query What value of 100 nM FACS (MFI Ratio) has been reported for the following binder? NRP1-34 (VHH) VHH: EVQLVESGGGLVQPGGSLRLSCAASGYTYRKYCMGWFRQAPGKEREWVAAISRSGNLKSYADSVKGRFTISADNSKNTAYLQMNSLKPEDTAVYYCAIKRWPVDTRRRRDMVVGCPGRDEYEWGQGTLVTVSS
// result 612

// query What value of 100 nM FACS (MFI Ratio) has been reported for the following binder? NRP1-128 (antibody, IgG2, V domains shown) VH: EVQLLESGGGLVQPGGSLRLSCAASGFTFSRYAMNWVRQAPGKGLEWVSAISGSGGNTYYADSVKGRFTISRDNSKNTLYLQMNSLRAEDTAVYYCARVRRGGATDYWGQGTLVTVSS VL: DIQMTQSPSSLSASVGDRVTITCRASQDVSSGVAWYQQKPGKAPKLLIYGKNIRPSGVPSRFSGSGSGTDFTLTISSLQPEDFATYYCQQTYSPPLTFGQGTKVEIK
// result 1.2

// query What value of 100 nM FACS (MFI Ratio) has been reported for the following binder? NRP1-112 (VHH) VHH: EVQLVESGGGLVQPGGSLRLSCAASGNIFINNAMGWFRQAPGKERELVAAITSSSGRRWYADSVKGRFTISADNSKNTAYLQMNSLKPEDTAVYYCAAYQRGWGDWGQGTLVTVSS
// result 0.7

// query What value of 100 nM FACS (MFI Ratio) has been reported for the following binder? NRP1-220 (antibody, IgG2, V domains shown) VH: EVQLLESGGGLVQPGGSLRLSCAASGFTFRTYDMGWVRQAPGKGLEWVSAVSGSGGTTYYADSVKGRFTISRDNSKNTLYLQMNSLRAEDTAVYYCARETRRVLRRQWRRSYHSYGLDVWGQGTLVTVSS VL: DIQMTQSPSSLSASVGDRVTITCRASQSISNKLNWYQQKPGKAPKLLIYAASTLQRGVPSRFSGSGSGTDFTLTISSLQPEDFATYYCQQSYKTPLTFGGGTKVEIK
// result 2.3

// query What value of 100 nM FACS (MFI Ratio) has been reported for the following binder? NRP1-94 (VHH) VHH: EVQLVESGGGLVQPGGSLRLSCAASGRTFSTYASMGWFRQAPGKEREFVARIWPGGSTYYADSVKGRFTISADNSKNTAYLQMNSLKPEDTAVYYCARQFGAWLGEVVGPMDVWGQGTLVTVSS
// result 2.8

// query What value of 100 nM FACS (MFI Ratio) has been reported for the following binder? NRP1-114 (VHH) VHH: EVQLVESGGGLVQPGGSLRLSCAASGRSSRYYAMGWFRQAPGKEREFVAAIRWSGGTTFYADSVKGRFTISADNSKNTAYLQMNSLKPEDTAVYYCAADRMYRPVGNQYDWGQGTLVTVSS
// result 8.7

// query What value of 100 nM FACS (MFI Ratio) has been reported for the following binder? NRP1-132 (antibody, IgG2, V domains shown) VH: EVQLLESGGGLVQPGGSLRLSCAASGFTFGDHGMGWVRQAPGKGLEWVSYITPKGDHTYYADSVKGRFTISRDNSKNTLYLQMNSLRAEDTAVYYCASLPKRGPRFDYWGQGTLVTVSS VL: DIQMTQSPSSLSASVGDRVTITCRASQNIRSYLNWYQQKPGKAPKLLIYRLSVLQSGVPSRFSGSGSGTDFTLTISSLQPEDFATYYCQQGYTLPWTFGQGTKVEIK
// result 0.8

The measured values listed here are drawn from patent US20230265198A1.
